Test system: NIH3T3
measurement_notes: Cytotoxicity against mouse 3T3 cells at 1 to 30 uM measured after 48 hrs by MTT assay relative to control
Format: cell-based
assay_conditions: nih3t3, 48 h
metric: Activity (%)

> print(dat)
                               entry.smiles  unit.of.measurement  assay.result
1    COc1cc(C(=O)Nc2c(Cl)cccc2Cl)cc(OC)c1OC                    %            48
2              O=C(Nc1c(Cl)cccc1Cl)c1ccccc1                    %            33
3            O=C(Nc1c(Cl)cccc1Cl)c1ccccc1Br                    %            41
4          COc1ccc(C(=O)Nc2c(Cl)cccc2Cl)cc1                    %            32
5  O=C(Nc1c(Cl)cccc1Cl)c1cccc([N+](=O)[O-])c1                    %            41
6          COc1cccc(C(=O)Nc2c(Cl)cccc2Cl)c1                    %          14.8
7          O=C(Nc1c(Cl)cccc1Cl)c1ccc(F)cc1F                    %            34
8           O=C(Nc1c(Cl)cccc1Cl)c1ccc(F)cc1                    %            29
